tested on: E. coli h38 humanized mutant ribosome RFP fluorescence, mixed culture, 24 h; assay: growth inhibition of wild-type GFP E. coli, dose response, h38 mutant RFP, cherry-pick (AID 977622); settings: h38 mutant RFP at 50 uM; at 50 µM
In all, about 1,900 compounds went through this assay and fewer than 10 were called active. Inconclusive results (about 39%) are left out. The list is a sample of the results.
quantity-kind: activity change (%)
One number for each entry, in %.

Study these solved cases before continuing.
| compound | activity change / % |
| --- | --- |
| Cc1cc(C)c(OCC(=O)OCC(=O)N2CCc3ccccc3C2)c(C)c1 | -19.1 |
| Nc1ccc(C(=O)OCCCc2nc3cc4ccccc4cc3[nH]2)cc1 | 0.364 |

Required: activity change, one value per compound below.
1. CCn1c(COc2cccc(OC)c2)nnc1SCC(=O)Nc1cc(OC)ccc1OC
2. COc1ccc(CN2CCC3CC2c2cc(Cl)ccc23)cc1 (centres undefined)
3. CCS(=O)(=O)N1CCN(c2ccnc3cc(Cl)ccc23)CC1

Ans:
1: -20.2; 2: -4.61; 3: 61.1

---

test: growth inhibition of wild-type GFP E. coli, dose response, h38 mutant RFP, cherry-pick (AID 977622); settings: 24 h; E. coli mixed culture, total growth OD600 at 50 uM, at 50 µM
The whole screen tested about 1,900 compounds, of which fewer than 10 were called active. Not shown: some 39% with an inconclusive outcome. Only a sample is shown.
For each of the molecules below, state its activity change.

Below, 5 molecules whose answers are already recorded.
| molecule | result |
| --- | --- |
| COc1cc(OC)cc(C(=O)N[C@H](C(=O)OCC(=O)Nc2ccc(F)c(F)c2F)C(C)C)c1 | -1.83% |
| CCOCC(=O)Nc1c(C(=O)Nc2ccc3c(c2)OCCO3)oc2ccccc12 | -44.7% |
| Cc1cccc(-c2ccc([C@H]3[C@H](CO)N4CCCCN(S(=O)(=O)c5ccccc5C)C[C@@H]34)cc2)c1 | 4.65% |
| CN(C)S(=O)(=O)N1CCN(c2ccccc2Cl)CC1 | -14.9% |
| CCC(C)c1ccccc1NC(=O)c1cccc(-n2cnnn2)c1 (stereo unspecified) | -13.9% |

Q: Entry under review: Cn1cc(CN2CCCC(C(=O)Nc3cccc(-c4cc5ccccc5[nH]4)c3)C2)cn1 (stereo unspecified) . Reported activity change?
Ans: -25.9%

---

Can you tell me activity change for the items I'm about to list?
tested on: E. coli h38 humanized mutant ribosome RFP fluorescence, mixed culture, 24 h; assay: growth inhibition of wild-type GFP E. coli, dose response, h38 mutant RFP, cherry-pick (AID 977622); details: h38 mutant RFP at 50 uM; at 50 µM
Among all 1,900 compounds or so, fewer than 10 were called active. Not shown: some 39% with an inconclusive outcome. These entries were drawn from the full list.
Give bare numbers, in %.

Worked set:
| molecule | test-system | activity change / % |
| --- | --- | --- |
| O=S(=O)(Cc1ccccc1)N1CCCCN2[C@@H](CO)[C@H](c3ccc(C#Cc4ccccc4)cc3)[C@@H]2C1 | E. coli h38 humanized mutant ribosome RFP fluorescence, mixed culture, 24 h | 11.8 |
| COc1ccc(NC(=O)CN(c2ccccc2OC)S(=O)(=O)c2cccs2)cc1Cl | E. coli h38 humanized mutant ribosome RFP fluorescence, mixed culture, 24 h | 19 |

Give activity change for each of the items listed below.
1. O=C(Nc1ccc(F)cc1)N1CCCCN2[C@@H](CO)[C@H](c3ccc(-c4ccncc4)cc3)[C@@H]2C1
2. COc1ccc(Cc2c(-c3cccc(Cl)c3)nc3ccc(Cl)cn23)c(C)c1
3. CS(=O)(=O)c1ccc(Cl)c(NC(=O)COC(=O)c2c(Cl)cccc2Cl)c1
4. C[C@H]1CN([C@@H](C)CO)C(=O)CCCn2nncc2CO[C@@H]1CN(C)Cc1ccccc1C(F)(F)F
5. Cc1ccc(NS(=O)(=O)c2ccc3c(c2)CCC(=O)N3)cc1C
6. O=C(COC(=O)C1CC2C=CC1C2)Nc1ccc([N+](=O)[O-])cc1 (stereo not drawn)

Ans:
1. -0.029
2. 1.24
3. -3.81
4. -45.2
5. -10.9
6. -8.7
